Tested on: RARg:RXRa (NR concentration 270 nM, RXRa partner concentration 90 nM)
protocolNotes: PBM binding z-score (relative to random genomic background probes); higher = stronger binding; sequences stand for … in GC…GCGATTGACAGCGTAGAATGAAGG
The label depends only on PBM binding z-score: Criterion met if it is at least 0.9, Criterion not met if it is smaller.

// known answers, use as guide
macromoleculeSequence: ATCTCTAGGTAACAAGTTCAGTGAAAGAGAGGAC
classification: Criterion met
//
macromoleculeSequence: TAGCCTAGGCCATTCAGGGGCCAGTATAGAAAGC
classification: Criterion met
//
macromoleculeSequence: GATACAGGGTCAAGGCCAGAGAACGCGTATTGAT
classification: Criterion met
//
macromoleculeSequence: ATCGAGAGGTCGTGAGGTGAGTATACAGAAAGGC
classification: Criterion met
//
macromoleculeSequence: AGAATGAGGTTATACGTCGATCAGGGAAGAAAGT
classification: Criterion met

[Q] Please indicate if the recorded PBM binding z-score for `CCTACTGGGCCACGAAAGGTCTTTGATTCAGTGA` meets or exceeds 0.9.
[A] Criterion not met

[Q] Does the sequence `CCTAGTTGGTCAAGGGCACACACGCTATAGGTAC` have recorded PBM binding z-score that is 0.9 or more?
[A] Criterion met

[Q] Item `AGTCAAAGTACATCTAGGTAACGTAAGATATGCT` with PBM binding z-score of 0.9 or above?
[A] Criterion not met

[Q] Answer whether PBM binding z-score of `CCTACTGGGCCATTCAGAGGTCATTGGTCATATG` is greater than or equal to 0.9.
[A] Criterion met

[Q] Could you verify whether the entry `CCAGACAGGTGAGATGGTAACTCAGCCTCGATTA` shows PBM binding z-score of no less than 0.9?
[A] Criterion not met

[Q] Is it the case that `ATCGCTAGGTAAGACTCAGTTCAGTGAAGAACGC` has PBM binding z-score reaching or exceeding 0.9?
[A] Criterion not met

[Q] Is the recorded value of PBM binding z-score equal to or greater than 0.9 for this sequence? `CGAACTAGGTCAAGGACAGCGAATCTCCGCACGC`
[A] Criterion met

[Q] Please check the record `TCTATTAGTTGAAGGGCAAACGACGAGTCCGTTT` and state if its PBM binding z-score is at or above 0.9.
[A] Criterion not met

[Q] PBM binding z-score >= 0.9 for `GGAACGTGGGCAAGTTGATAGCAGAGTTTGATGG` ?
[A] Criterion not met

[Q] Reported PBM binding z-score reaches at least 0.9 for `AGAACGAGGGCAATGAGTTGTTAGCACGGGTGGC` ?
[A] Criterion not met

[Q] Confirm if PBM binding z-score reported for the sequence `ACTATTACTTGAGACGAGGGCAACCGATAGGTTG` is 0.9 or above.
[A] Criterion not met

[Q] Does the sequence `ATCTCTAGGTAAAGTTAAGTGAAAGATCGATAGA` have recorded PBM binding z-score that is 0.9 or more?
[A] Criterion not met

[Q] Does the sequence `CCTTACGGGTCACGCCAGGTTATAGCATCGGAGT` have recorded PBM binding z-score that is 0.9 or more?
[A] Criterion met

[Q] Assess whether reported PBM binding z-score for `CCTCGGAGAACAACAGGAGGTCAGAGCTGCCAGA` sits at 0.9 or higher.
[A] Criterion met

[Q] PBM binding z-score >= 0.9 for `CGTCCAAGGTCAGCAGGTAAGTGAAAGCGACGTG` ?
[A] Criterion met

[Q] Confirm if PBM binding z-score reported for the sequence `CCTCACGGGTCACTGACAGGTTATAGCATTTGGA` is 0.9 or above.
[A] Criterion met

[Q] Hello, I need to know if `CGTCAAAGTTCACGGTAACGTAACAGAAAGCAGC` has measured PBM binding z-score not below 0.9. Thanks!
[A] Criterion met

[Q] Check the entry `TAGCCTAGGTCATGCGGGCCAGTATGGTGTCGGC` : does PBM binding z-score equal or exceed 0.9?
[A] Criterion met

[Q] Determine whether measured PBM binding z-score meets or exceeds 0.9 for `ATATGTAGGTTAAGGGTCATTCCGGTTGGTTCGC`
[A] Criterion met

[Q] Say whether `CCTCGGCGGACAACAGGAGGTCAGAGCTGCCAGA` shows PBM binding z-score of 0.9 or more.
[A] Criterion met

###

# reported PBM binding z-score; entries follow
Tested on: VDR homodimer (NR concentration 270 nM)
protocolNotes: PBM binding z-score (relative to random genomic background probes); higher = stronger binding; sequences stand for … in GC…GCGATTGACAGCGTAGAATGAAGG
Number only, please.

Some solved cases for reference:
macromoleculeSequence: ATCTGTAGGTAAAAGTTCAGTGAATCCCGAGGAT
measurementType: PBM binding z-score
quantitativeResult: 1.36

macromoleculeSequence: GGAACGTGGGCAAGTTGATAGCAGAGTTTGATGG
measurementType: PBM binding z-score
quantitativeResult: 0.343

macromoleculeSequence: ACAGACAGGTGAGTGAAGGTAAATCAGCTGGACG
measurementType: PBM binding z-score
quantitativeResult: -0.366

macromoleculeSequence: CTACCAAGGTAAACAAGGTCGTTGATTACTATTC
measurementType: PBM binding z-score
quantitativeResult: 2.04

[Q] For the sequence `AGAATGAGGTTACCAAAGATCAGGGGAACGCTTG` , what PBM binding z-score is on record?
[A] 0.0393

###

System: PPARg:RXRa DBDmut IVT, anti-RXR (DBD mutation: RXRa K156A/R161A, NR concentration 270 nM, RXRa partner concentration 90 nM)
protocolNotes: PBM binding z-score (relative to random genomic background probes); higher = stronger binding; sequences stand for … in GC…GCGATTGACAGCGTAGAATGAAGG
Returns 1.0 if the recorded PBM binding z-score is greater than or equal to 3, and 0.0 otherwise.

Reference set (5 entries):
macromoleculeSequence: TCTGCTAGTTCAGTTGGTCAGCTAACGAGCTGCC
classification: 0.0

macromoleculeSequence: TATACAGGGTCAAAGGACAGAGTACGAATGTCGA
classification: 0.0

macromoleculeSequence: CCTACTGGGCCAAGAAAGGTCATTGATTCAGTGA
classification: 1.0

macromoleculeSequence: TCTTGTAGATCAATAGAGGTTAAGAAAGTGCGCT
classification: 0.0

macromoleculeSequence: ATATGTAGGTTAGCAGGGGTCATTCAGACTAGGC
classification: 1.0

[Q] Does `CAAACTAGGTCAGAGGTCAAAGTCGAGCCAACCA` have a reported PBM binding z-score of at least 3?
[A] 1.0

###

System: RARa:RXR (NR concentration 270 nM, RXRa partner concentration 90 nM)
protocolNotes: PBM binding z-score (relative to random genomic background probes); higher = stronger binding; sequences stand for … in GC…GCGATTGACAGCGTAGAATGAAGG
Lab note: anything with PBM binding z-score at or over 1 counts as satisfied; the rest go in not satisfied.

Examples with answers:
macromoleculeSequence: CCTAGTTGGTCAGGAGGTCACGCACCGGATATGA
classification: satisfied
//
macromoleculeSequence: TCTATTAGTTGATTTGGGCAACCGAAACAGCGGA
classification: not satisfied
//
macromoleculeSequence: GAATATAGGTAATACAAGGTGAAAGTCCGATTGT
classification: satisfied

[Q] API: above_or_equal(metric=PBM binding z-score, cutoff=1) for item `GCGACTGGGGCAAAGCAGGTTACCAAAAGGTTGG`
[A] not satisfied

[Q] Quick check, PBM binding z-score >= 1? `AGAACGAGGGCTCGCTGAGTTGATAGCAGAGTAG`
[A] not satisfied

[Q] Hello, I need to know if `CCGTCTGGGGCAAGGTTACCATAACGCACAGCCA` has measured PBM binding z-score not below 1. Thanks!
[A] not satisfied

[Q] Quick check, PBM binding z-score >= 1? `GGAACGAGGGCAAGTTGCTAGCAGAGTTTGATGG`
[A] not satisfied

[Q] Exam item: decide whether the reported PBM binding z-score for `CCTACTGGGCCATCCAGAGGTCATTGATCATATG` is at least 1.
[A] satisfied

[Q] Does `ATCTGTAGGTAAAGATAGTTCAGTGAATGCAAAT` have a reported PBM binding z-score of at least 1?
[A] not satisfied

[Q] Could you please find out whether `CTACCAAGGTGAACAAGGTCATTGATTACTATTC` has PBM binding z-score that meets 1 or exceeds it?
[A] satisfied

[Q] Record `TCTATTGGTTGAAGGGCAACCGACGAGTCCGTTT` ; criterion: PBM binding z-score no lower than 1. Met?
[A] not satisfied

[Q] Does the reported PBM binding z-score for `ATCTCTAAGTAAAAGTTCAGTGAATCCCGAGGAT` fall at or above the 1 mark?
[A] satisfied

###

System: LXRb:RXRa (NR concentration 270 nM, RXRa partner concentration 90 nM)
protocolNotes: PBM binding z-score (relative to random genomic background probes); higher = stronger binding; sequences stand for … in GC…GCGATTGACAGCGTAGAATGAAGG
measurementType: PBM binding z-score
Respond numerically, and do not add a unit to the figure.

The examples below pair each entry with its known result.
macromoleculeSequence: CCGAATAGGTTATGGGGCATTCAGGCAACGGTGA
testedOn: LXRb:RXRa (NR concentration 270 nM, RXRa partner concentration 90 nM)
PBM binding z-score: 1.02
//
macromoleculeSequence: CCTTACGAGTCACGAGGTTATAGCACGACGAGCG
testedOn: LXRb:RXRa (NR concentration 270 nM, RXRa partner concentration 90 nM)
PBM binding z-score: 1.22
//
macromoleculeSequence: CGTCCAAGGTCAGCAGGTCAGTGAAAGCGACGTG
testedOn: LXRb:RXRa (NR concentration 270 nM, RXRa partner concentration 90 nM)
PBM binding z-score: 3.11
//
macromoleculeSequence: TCAGATAGGTAAATGCTAGGTGAAAGTCCGATCT
testedOn: LXRb:RXRa (NR concentration 270 nM, RXRa partner concentration 90 nM)
PBM binding z-score: 0.329
//
macromoleculeSequence: CCTACTGGGCCATCAAGTCATTGATATCAACGTT
testedOn: LXRb:RXRa (NR concentration 270 nM, RXRa partner concentration 90 nM)
PBM binding z-score: 0.373
//
macromoleculeSequence: CAGACTAGGTCACCGGAAGGTCAAAGTCCGCATG
testedOn: LXRb:RXRa (NR concentration 270 nM, RXRa partner concentration 90 nM)
PBM binding z-score: 5.14

[Q] Dear colleague, I am looking for the recorded PBM binding z-score of the following sequence: `ATCTCTCGGTAAAAGTTCAGTGAATCCCGAGGAT`
[A] 1.07

[Q] I'd like to know its PBM binding z-score. The sequence in question is `CCTGCTGGGCCAAAGGTCATTGATTCCAATGCTC`
[A] 4.66

All values here come from the supplement of paper PMC6555819.
